B1: TPR 5TU (parent)
chain: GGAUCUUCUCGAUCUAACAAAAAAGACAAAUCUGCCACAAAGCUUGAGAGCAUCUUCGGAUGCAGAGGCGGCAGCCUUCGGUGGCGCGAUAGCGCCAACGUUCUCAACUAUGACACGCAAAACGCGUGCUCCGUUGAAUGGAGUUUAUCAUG

Variants of: B1
test-protocol: polymerase ribozyme fitness, log enrichment relative to wild type (log ratio); higher = more active; in vitro selection for triplet polymerase activity
Fewer inactive variants are shown than the library holds.
measured-quantity: polymerase ribozyme fitness (log ratio)
Answers are plain numbers.

// below: answered variants
[
  {
    "mutation-annotation": "U55A C76U C93U C95U G143A",
    "endpoint-result": -2.72
  },
  {
    "mutation-annotation": "A19G G126C",
    "endpoint-result": 0.693
  },
  {
    "mutation-annotation": "A22G G86C",
    "endpoint-result": -1.67
  },
  {
    "mutation-annotation": "A52C C57U C85U U135A",
    "endpoint-result": -1.62
  },
  {
    "mutation-annotation": "C18G C57A U134G U145A",
    "endpoint-result": -3.18
  }
]

Okay, here is my list. What is polymerase ribozyme fitness (log ratio) for each of these?
1. A16C U55A
2. A52G C76U C93G

Output:
1: -1.28; 2: -2.91

Okay, here is my list. What is polymerase ribozyme fitness (log ratio) for each of these?
1. C96G C105G G143A
2. C85G G94A C95G U135A

Output:
[-3.02, -3.95]
